Target: hCA II (Homo sapiens)
Construct: gene CA2
Assay: stopped-flow CO2 hydrase assay
Assay type: biochemical
quantity_kind: Ki (µM)

Field: example entries. Status: answers known.
{"columns": ["chem_smiles", "measured_target", "Ki / µM"],
 "data": [
  ["O=C(O)c1ccc(NC=CC(=O)c2ccc(Cl)cc2)cc1", "hCA II (Homo sapiens)", 13.5],
  ["O=C(O)c1cccc(NCCC(=O)c2ccccc2)c1", "hCA II (Homo sapiens)", 64.3]
]}

[A] O=C(O)c1cccc(NC=CC(=O)c2ccc([N+](=O)[O-])cc2)c1
[B] O=C(O)c1ccc(NCCC(=O)c2ccccc2)cc1
[C] O=C(/C=C\Nc1ccccc1C(=O)O)c1ccc([N+](=O)[O-])cc1
Prompt: Form: Sort by [Ki] Order [ ascending ] Labels, requested order.
Completion: B, C, A
